System: HT-29
PROTOCOL_TEXT: Hypoxic cytotoxicity ratio, IC50 for human HT-29 cells in oxic condition to IC50 for human HT-29 cells in hypoxic condition
Assay type: functional
Can you tell me Ratio IC50 for the items I'm about to list?
One number for each entry.

Here is how some molecules turned out for Ratio IC50.
CN(C)CCOc1ccc2[nH]c(C(=O)N3CC(CCl)c4c3cc([N+](=O)[O-])c3ccc(C(N)=O)cc43)cc2c1 (centres undefined) | 22
CN(C)CCOc1ccc2[nH]c(C(=O)N3CC(CCl)c4c3cc([N+](=O)[O-])c3cc(S(N)(=O)=O)ccc43)cc2c1 (centres undefined) | 330
COc1cc2cc(C(=O)N3CC(CCl)c4c3cc([N+](=O)[O-])c3ccccc43)[nH]c2c(OC)c1OC (centres undefined) | 2.5

Proceed to the following item.
Quick note, Ratio IC50 for CN(C)CCOc1ccc2[nH]c(C(=O)N3CC(CCl)c4c3cc(N)c3cc(S(N)(=O)=O)ccc43)cc2c1 (centres undefined) landed at 1.8
